Recorded values, source ChEMBL document CHEMBL4038296.

# targetOrSystem: Tyrosine-protein phosphatase non-receptor type 1 (Homo sapiens, UniProt P18031)
# Sequence (P18031 whole entry, the tested form may be a part): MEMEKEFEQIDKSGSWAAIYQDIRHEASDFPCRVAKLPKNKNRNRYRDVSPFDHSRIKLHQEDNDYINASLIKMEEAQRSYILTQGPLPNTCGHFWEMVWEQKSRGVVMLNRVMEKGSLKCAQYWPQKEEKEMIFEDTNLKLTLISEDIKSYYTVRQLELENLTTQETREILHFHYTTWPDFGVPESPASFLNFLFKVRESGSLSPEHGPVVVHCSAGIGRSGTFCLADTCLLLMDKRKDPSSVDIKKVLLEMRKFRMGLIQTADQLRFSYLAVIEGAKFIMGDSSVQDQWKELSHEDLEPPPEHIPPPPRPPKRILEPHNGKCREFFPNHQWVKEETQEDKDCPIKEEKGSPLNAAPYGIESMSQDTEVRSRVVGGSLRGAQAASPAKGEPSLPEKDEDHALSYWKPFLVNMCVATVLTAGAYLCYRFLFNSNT
# assayRemarks: Inhibition of human recombinant PTP1B (1 to 322 residues) expressed in Escherichia coli using pNPP as substrate preincubated for 10 mins followed by substrate addition measured after 30 mins
propertyMeasured: IC50 (µM)
Express it in µM; write the number only.

Inquiry: Quick one: IC50 for "C/C(=C\C[n+]1cn(C)c2ncnc(N)c21)CC[C@]1(C)[C@@H](C)CC[C@@]2(C)C(COC(=O)c3cc(Br)c[nH]3)=CCC[C@@H]12" ?
Reply text: 15

----------
# targetOrSystem: Dual specificity protein phosphatase 3 (Homo sapiens, UniProt P51452)
# Sequence (P51452 whole entry): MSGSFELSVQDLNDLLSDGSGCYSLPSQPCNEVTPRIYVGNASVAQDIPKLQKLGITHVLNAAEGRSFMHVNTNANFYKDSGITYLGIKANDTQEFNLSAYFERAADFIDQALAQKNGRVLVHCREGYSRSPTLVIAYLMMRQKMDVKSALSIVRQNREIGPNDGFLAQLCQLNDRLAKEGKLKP
# assayRemarks: Inhibition of human recombinant VHR expressed in Escherichia coli using pNPP as substrate preincubated for 10 mins followed by substrate addition measured after 30 mins
propertyMeasured: IC50 (µM)
Your answer is read as µM, so omit the unit and give the number.

Inquiry: Given "C/C(=C\C[n+]1cn(C)c2ncnc(N)c21)CC[C@]1(C)[C@@H](C)CC[C@@]2(C)C(COC(=O)c3cc(Br)c[nH]3)=CCC[C@@H]12" , state its recorded IC50.
Reply text: 13
